assay: Half life in mouse plasma at 5 mg/kg, po by HPLC/MS analysis; type: ADME, organism-based
observation.type: half-life
State the value, then name its unit.

Request: May I ask what half-life has been recorded for `Nc1ncnc2c1c(-c1ccc(Br)c(O)c1)nn2C1Cc2ccccc2C1` ?
Response: 2.3 h

###

assay: Oral bioavailability in mouse plasma at 15 mg/kg by HPLC/MS analysis; format: ADME, organism-based
Assign YES to entries whose bioavailability meets or exceeds 2%; assign NO to the rest.

                                  structure  discrete_label
0  COc1ccc(-c2nn(C3Cc4ccccc4C3)c3ncnc(N)c23)cc1O             YES
1  Nc1ncnc2c1c(-c1cc(O)c(F)c(F)c1)nn2C1Cc2ccccc2C1              NO
2  Nc1ncnc2c1c(-c1cc(O)cc(F)c1)nn2C1Cc2ccccc2C1             YES

Request: Could you please find out whether `Nc1ncnc2c1c(-c1ccc(F)c(O)c1)nn2C1Cc2ccccc2C1` has bioavailability that meets 2% or exceeds it?
Response: YES

Request: Hi, just wondering whether `Nc1ncnc2c1c(-c1cc(O)cc(Cl)c1)nn2C1Cc2ccccc2C1` shows bioavailability of 2% or higher.
Response: NO
